Target: hGAT3 (Homo sapiens)
Test: [3H]GABA competition uptake assay, wild-type hGAT3 in HEK293T cells
Assay type: cell-based
recorded endpoint: IC50 (µM)
Use µM as the unit, but write only the number.

The reported value for NCCCC(=O)O [GABA, γ-Aminobutyric acid, reference compound] in terms of IC50 is 6.9

* * *

Molecular target: hGAT3-C316S (Homo sapiens, UniProt P48066, C316S)
Sequence (P48066 1-632 C316S): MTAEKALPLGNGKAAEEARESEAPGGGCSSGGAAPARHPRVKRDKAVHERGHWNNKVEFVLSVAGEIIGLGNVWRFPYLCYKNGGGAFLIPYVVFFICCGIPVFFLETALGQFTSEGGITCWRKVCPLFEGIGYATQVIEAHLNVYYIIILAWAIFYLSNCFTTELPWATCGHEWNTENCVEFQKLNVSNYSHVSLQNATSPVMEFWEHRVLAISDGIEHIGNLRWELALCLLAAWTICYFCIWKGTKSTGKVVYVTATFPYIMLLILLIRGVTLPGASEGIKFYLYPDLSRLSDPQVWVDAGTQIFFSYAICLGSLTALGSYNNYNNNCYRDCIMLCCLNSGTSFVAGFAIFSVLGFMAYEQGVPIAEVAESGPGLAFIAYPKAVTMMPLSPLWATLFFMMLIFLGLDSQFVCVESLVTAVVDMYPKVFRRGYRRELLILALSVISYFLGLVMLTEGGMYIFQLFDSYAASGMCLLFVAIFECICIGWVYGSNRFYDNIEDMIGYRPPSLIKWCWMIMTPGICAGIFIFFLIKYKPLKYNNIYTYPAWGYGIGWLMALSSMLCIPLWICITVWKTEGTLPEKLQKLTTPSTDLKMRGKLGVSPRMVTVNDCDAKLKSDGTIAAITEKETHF
Experiment: [3H]GABA competition uptake assay, hGAT3-C316S mutant in HEK293T cells
Type: cell-based
recorded endpoint: pIC50
Units for pIC50: none; it is -log10 of a concentration expressed in mol/L.

The reported value for NCCCC(=O)O [GABA, γ-Aminobutyric acid, reference compound] in terms of pIC50 is 5.38
